Tested on: TK-10 renal
Assay: NCI-60 one-dose screen, 48 h (100 = growth as untreated, 0 = no growth, -100 = all killed)
Conditions: 10 µM unless noted
Method: Growth inhibition of the TK-10 human tumor cell line is measured as a screen for anti-cancer activity. Cells are grown in 96 well plates and exposed to the test compound for 48 hours. Compounds are tested at a single concentration, which is 10^-5 M for most compounds. The reported endpoint is percent growth (GI% or GIPRCNT), where numbers from 0 - 100% represent growth inhibition, and numbers from -100% - 0 represent cell death. For example, a value of 40 represents 60% growth inhibition. […]
The panel holds about 83,000 compounds, 20% with a hit somewhere; the sample as a whole holds those more often. The source made the active and inactive calls. How the source made its calls: active means growth percent below 10; inactive means the rest.
Consider the following compounds and their measured growth readings.

Field: example entries. Status: answers known.
INSERT INTO assay_data (compound, metric, endpoint_value) VALUES
  ('COc1ccc(C(=O)/C=C/c2cccnc2)cc1S(N)(=O)=O', 'growth', '66.8% (inactive)'),
  ('COc1ccc2nc(Nc3cccc(NC(=O)c4ccc(CN5CCCN(C)CC5)c(C(F)(F)F)c4)c3)ccc2c1', 'growth', '-81.1% (active)');

Exam item: What value of measured growth is listed for "CC(=O)c1cccc(NC(=O)CCC(=O)NS(=O)(=O)c2ccc(C)cc2)c1" ?
Marked response: 103% (inactive)

Exam item: Request: "O=C1c2c(c3c4cc(F)ccc4oc3c3[nH]c4ccc(Br)cc4c23)C(=O)N1O"
Marked response: 137% (inactive)

Exam item: Request: "COc1ccc(-c2c(Nn3cnnn3)no[n+]2[O-])cc1"
Marked response: 62.5% (inactive)
